I'd be grateful if you could share measured IC50 for these entries.
Target: T. vaginalis Tv20S proteasome β5 subunit (Trichomonas vaginalis, UniProt A2DD57+A2F716)
Sequence (A2DD57 entry or part of it): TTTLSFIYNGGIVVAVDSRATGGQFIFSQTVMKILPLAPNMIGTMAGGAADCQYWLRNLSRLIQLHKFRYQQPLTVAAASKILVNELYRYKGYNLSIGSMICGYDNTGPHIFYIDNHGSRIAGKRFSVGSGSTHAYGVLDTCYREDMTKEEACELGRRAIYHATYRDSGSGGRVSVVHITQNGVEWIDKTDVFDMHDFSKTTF
Sequence (A2F716 entry or part of it): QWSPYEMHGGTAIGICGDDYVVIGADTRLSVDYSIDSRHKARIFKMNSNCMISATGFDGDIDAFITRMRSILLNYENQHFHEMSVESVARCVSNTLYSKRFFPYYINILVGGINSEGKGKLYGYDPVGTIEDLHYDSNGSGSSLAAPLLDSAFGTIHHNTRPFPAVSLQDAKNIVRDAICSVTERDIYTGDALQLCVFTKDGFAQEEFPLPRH
Assay: biochemical
Type: biochemical
Conditions: recombinant Tv20S, mean ± SD of three experiments; read-out: Tv20S proteasome inhibition of β5 subunit (IC50)
Answers are plain numbers, in µM.

In the examples that follow, each entry is paired with its recorded IC50.
INSERT INTO assay_data (compound, readout, observedvalue) VALUES
  ('COc1ccc(CC(NC(=O)C(C)NC(=O)OCc2ccccc2)C(=O)NC(Cc2ccccc2)C(=O)C2(C)CO2)cc1 (centres unmarked) [compound 12]', 'IC50', 0.0206),
  ('CCCCCC(=O)N[C@H](C(=O)N[C@@H](CCS(C)(=O)=O)C(=O)N[C@@H](CC(C)C)C(=O)[C@@]1(C)CO1)C(C)C [38 (CPB), carmaphycin B, reference compound]', 'IC50', 0.00151),
  ('COc1ccc(C[C@H](NC(=O)[C@H](C)NC(=O)C2=C(C)c3ccccc3C2)C(=O)N[C@@H](Cc2ccc(-c3ccccc3)cc2)C(=O)[C@@]2(C)CO2)cc1 [compound 20]', 'IC50', 0.0441);

Dear reader, for each entry below, please note its IC50.
1. COc1ccc(C[C@H](NC(=O)[C@H](C)NC(=O)C2=C(C)c3ccccc3C2)C(=O)N[C@@H](Cc2ccccc2)C(=O)[C@@]2(C)CO2)cc1 [compound 4]
2. COc1ccc(CC(NC(=O)C(C)NC(=O)OCc2ccccc2)C(=O)NC(Cc2ccccc2)C(=O)C2(C)CO2)cc1 (centres unmarked) [compound 11]
3. COc1ccc(CC(NC(=O)C(C)NC(=O)CN2CCOCC2)C(=O)NC(Cc2ccc(-c3ccccc3)cc2)C(=O)C2(C)CO2)cc1 (centres unmarked) [compound 3]
4. CCCCC(=O)N[C@@H](Cc1ccc(O)cc1)C(=O)N[C@@H](CCCC)C(=O)N[C@@H](Cc1ccccc1)C(=O)[C@@]1(C)CO1 [compound 5]

Ans.
1: 0.00821; 2: 0.00429; 3: 0.012; 4: 0.00243

---

System: T. vaginalis Tv20S proteasome β2 subunit
Test: In vitro proteasome assay, Ac-FRSR-amc substrate
Format: biochemical, Trichomonas vaginalis
Details: recombinant Tv20S, mean ± SD of three experiments
readout: Tv20S proteasome inhibition of β2 subunit (IC50)

Some compounds with known Tv20S proteasome inhibition of β2 subunit (IC50) results, for comparison:
INSERT INTO measurements (compound, observedvalue) VALUES
  ('CCCCC(=O)N[C@H](Cc1c[nH]c2ccccc12)C(=O)N[C@@H](Cc1c[nH]c2ccccc12)C(=O)N[C@@H](Cc1ccccc1)C(=O)[C@]1(C)CO1 [compound 91]', 'No inhibition'),
  ('C[C@@]12OC(=O)[C@]1([C@@H](O)[C@@H]1C=CCCC1)NC(=O)[C@@H]2CCCl [18 (MZB), marizomib, reference compound]', 'No inhibition'),
  ('COc1ccc(CC(NC(=O)C(C)NC(=O)OCc2ccccc2)C(=O)NC(Cc2ccccc2)C(=O)C2(C)CO2)cc1 (stereo not drawn) [compound 12]', 'No inhibition'),
  ('CCCCCC(=O)NC(CC(=O)NC(CCCC)C(=O)NC(Cc1ccccc1)C(=O)C1(C)CO1)CC(=O)OC(C)(C)C (stereo not drawn) [compound 8]', 'No inhibition');

Provide Tv20S proteasome inhibition of β2 subunit (IC50) for all items below, preserving their order.
1. COc1ccc(CC(NC(=O)C(C)NC(=O)OCc2ccccc2)C(=O)NC(Cc2ccccc2)C(=O)C2(C)CO2)cc1 (stereo not drawn) [compound 11]
2. COc1ccc(CC(NC(=O)C(C)NC(=O)CN2CCOCC2)C(=O)NC(Cc2ccc(-c3ccccc3)cc2)C(=O)C2(C)CO2)cc1 (stereo not drawn) [compound 3]

Ans.
1: No inhibition; 2: No inhibition
